- experiment: Phase 1 study, SAD cohorts: plasma pharmacokinetics
- Format: in vivo, human
- condition-description: both sexes, human, oral, Day 1, 20 mg, plasma, median

{"columns": ["line-notation", "half-life, min"],
 "data": [
  ["N#Cc1cccc(C#N)c1-c1c(-c2cccc(-c3ccc(C(=O)NCC(=O)O)cc3Cl)c2)n(S(=O)(=O)c2ccc(C(F)F)cc2)c2ccc(F)cc12", 142]
]}

====

- test-target: UniProtKB P55055
- Sequence (P55055 whole entry, the tested form may be a part): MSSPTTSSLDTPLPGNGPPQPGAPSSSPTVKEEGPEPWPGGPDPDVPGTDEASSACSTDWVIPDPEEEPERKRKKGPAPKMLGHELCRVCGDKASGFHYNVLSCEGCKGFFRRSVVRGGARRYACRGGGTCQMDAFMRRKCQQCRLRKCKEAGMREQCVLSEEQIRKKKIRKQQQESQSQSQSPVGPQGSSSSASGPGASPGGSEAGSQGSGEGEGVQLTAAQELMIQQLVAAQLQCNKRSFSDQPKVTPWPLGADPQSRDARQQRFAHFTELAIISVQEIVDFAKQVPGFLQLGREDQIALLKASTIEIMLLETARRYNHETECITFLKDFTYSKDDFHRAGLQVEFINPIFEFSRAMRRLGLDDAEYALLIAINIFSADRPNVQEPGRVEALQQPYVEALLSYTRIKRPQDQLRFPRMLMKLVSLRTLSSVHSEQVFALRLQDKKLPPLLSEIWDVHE
- experiment: LXR Gal4 reporter transient transfection assay (mammalian two-hybrid, HEK293), LXRβ
- Format: cell-based
- Parameters: LXRβ (amino acids 156-461); expressed in transfected cells; host or cells: HEK293
- condition-description: full length (FL) LXRβ, HEK293; read-out: FL-M2H Gal4β
pEC50: −log10 of the molar value.

{"columns": ["line-notation", "test-target", "pEC50"],
 "data": [
  ["N#Cc1cccc(C#N)c1-c1c(-c2cccc(-c3c(F)cc(C(=O)O)cc3F)c2)n(S(=O)(=O)c2ccc(C(F)F)cc2)c2ccc(F)cc12", "UniProtKB P55055", "> 7.00"],
  ["N#Cc1cccc(C#N)c1-c1c(-c2cccc(-c3ccc(C(=O)O)cc3Cl)c2)n(S(=O)(=O)c2ccc(C(F)F)cc2)c2cc(F)c(O)cc12", "UniProtKB P55055", "> 7.00"],
  ["COc1sccc1-c1c(-c2cccc(N3CC(C(=O)O)C3)c2)n(S(=O)(=O)c2ccc(C)cc2)c2ccc(F)cc12", "UniProtKB P55055", "6.00 to 7.00"]
]}

Each recorded value in this set is attributed to patent US20260083704A1.
